test: Oral LD50; conditions: mouse, in vivo, mice
recorded.metric: LD50 (mg/kg)
Please respond with the number in mg/kg and leave the unit unwritten.

I'd like to know its LD50. The compound in question is "COC(=O)Nc1nc2ccccc2[nH]1"
11000
